Substrate: O=C1CCC/C1=C\c1ccccc1
Experiment: purified protein
Type: biochemical, Bacillus subtilis
Details: 1.0 mM NADPH, 10 μM enzyme, PBS 100 mM, pH 7.5, 30 °C
experimental-readout: Km (µM)
# value in µM; strip the unit string

### Prompt Tell me measured Km for YqjM (Bacillus subtilis subsp. subtilis str. 168; C26G/I69Y/Y28F) (protein, ene-reductase, FMN enzyme) ARKLFTPITIKDMTLKNRIVMSPMGMFSSHEKDGKLTPFHMAHYISRAIGQVGLIIVEASAVNPQGRYTDQDLGIWSDEHIEGFAKLTEQVKEQGSKIGIQLAHAGRKAELEGDIFAPSAIAFDEQSATPVEMSAEKVKETVQEFKQAAARAKEAGFDVIEIHAAHGYLIHEFLSPLSNHRTDEYGGSPENRYRFLREIIDEVKQVWDGPLFVRVSASDYTDKGLDIADHIGFAKWMKEQGVDLIDCSSGALVHADINVFPGYQVSFAEKIREQADMATGAVGMITDGSMAEEILQNGRADLIFIGRELLRDPFFARTAAKQLNTEIPAPVQYERGW please.
### Response 2210
